test system: NCI-H23 lung; test: NCI tumour cell line growth inhibition, 48 h
ENDPOINT_NAME: TGI

The examples below pair each entry with its known result.
> print(dat)
                                   compound   system.name  endpoint.name    result
1  CC(C)=CC(=O)C/C(=N\NC(N)=S)C(=O)Nc1ccc(Cl)cc1  NCI-H23 lung            TGI  > 100 µM
2             CC1(C)N=C(C(N)=O)c2ncn(N)c2N1  NCI-H23 lung            TGI  > 100 µM
3  CCOC(=O)c1cc(-c2cc(OC)c(OC)c([N+](=O)[O-])c2)c([N+](=O)[O-])n1C  NCI-H23 lung            TGI   > 10 µM
4  O=C(c1ccc(Cl)cc1)c1ccc(OCCCOc2ccc(C(=O)c3ccc(Cl)cc3)cc2)cc1  NCI-H23 lung            TGI  > 100 µM
5  O=C1CCC2(CC1CC(Sc1ccccc1)Sc1ccccc1)OCCO2 (configuration not stated)  NCI-H23 lung            TGI  > 100 µM

Look up TGI for this compound: Cc1ccc(C)c2c1C(O)(C#Cc1ccccc1)c1ccccc1C2(O)C#Cc1ccccc1 (configuration not stated) > 29.5 µM

Look up TGI for this compound: CN(C)CCCNC(=O)c1cc(NC(=O)c2cc(NC(=O)CCc3c[nH]c4ccccc34)cn2C)cn1C > 100 µM

Look up TGI for this compound: O=C1CC2(c3ccccc3)ON=C(c3ccccc3)N2c2ccccc2N1 (configuration not stated) > 100 µM

Look up TGI for this compound: CC(C)CCC(=O)c1ccoc1 > 100 µM

Look up TGI for this compound: CCCCc1ccc(Nc2nc3c(ncn3C3CC(O)C(CN=[N+]=[N-])O3)c(=O)[nH]2)cc1 (configuration not stated) > 100 µM

Look up TGI for this compound: CN(C)CC(C)(C)/C(=N\Nc1ccccc1)c1ccccc1 > 100 µM

Look up TGI for this compound: CC(=O)[O][Ga]([Cl])[O]C(C)=O > 100 µM

---

GI50 values, listed per item
test system: MDA-MB-435; test: NCI tumour cell line growth inhibition, 48 h

The examples below pair each entry with its known result.
> print(dat)
                                   molecule   result
1  O=C(CO[N+](=O)[O-])Nc1ccc(C(=O)/C=C/c2ccc(Cl)cc2)cc1  2.96 µM
2  Cc1ccc(C)c2c1C(O)(C#Cc1ccccc1)c1ccccc1C2(O)C#Cc1ccccc1 (stereo not drawn)  2.42 µM

Look up GI50 for this molecule: C#CCOc1cccc(-c2ncnc3cc(NC(=O)CCl)ccc23)c1 0.993 µM

Look up GI50 for this molecule: CCOc1ccc2nc(SCc3nc4n(n3)S(=O)(=O)c3ccccc3N4C)sc2c1 > 100 µM

Look up GI50 for this molecule: Cc1cc(S(=O)(=O)Nc2nc3cscc3c(=O)n2Cc2ccccc2)c(S)cc1Cl 44.4 µM

Look up GI50 for this molecule: Clc1nc(Cl)c2ncn(Cc3cccc(Cn4cnc5c(Cl)nc(Cl)nc54)c3)c2n1 7.29 µM

Look up GI50 for this molecule: Cc1sc2nc(-c3ccncc3)c(/C=N/N=C(N)N)n2c1C 26.2 µM

Look up GI50 for this molecule: [Cl][Hg][Cl] 15.7 µM
